target or test system: Cellular tumor antigen p53 (Homo sapiens)
protocol: nuclear p53 accumulation, HPV+ cells – imaging, p53-positive nuclei imaging, 24 h, 48 h (AID 1508601)
assay context: 24/48 h, Library stock concentration: 2 mM, stronger effect = higher value
Hit rate of the full screen: of about 5,700 compounds, about 85 (1%) were called active. What follows is part of a selection rich in actives, with near analogues and random picks from the rest.
parameter measured: p53-positive nuclei, normalised (%)
Answers are plain numbers, in %.

Worked set:
# substance smiles, p53-positive nuclei, normalised / %
records = [
    ("COc1cc(OC)cc(-c2ccc3ncc4ccc(=O)n(-c5ccc(N6CCNCC6)c(C(F)(F)F)c5)c4c3c2)c1", -0.11),
    ("Cn1cc(CNCC2CCN(c3ncc(C(=O)NO)cn3)CC2)c2ccccc21", 92.2),
    ("C#C[C@]1(O)CC[C@@H]2[C@@H]3CCc4cc(O)ccc4[C@@H]3CC[C@@]21C", 0.0704),
]

Recorded p53-positive nuclei, normalised for CS(=O)(=O)c1cccc(CNc2nc(Nc3ccc4c(c3)CCC(=O)N4)ncc2C(F)(F)F)c1 , please?
0.159

---

protocol: nuclear p53 accumulation, HPV+ cells – imaging, p53-positive nuclei imaging, 24 h, 48 h (AID 1508601)
assay context: 24/48 h, measured here: cell number at 48 h, Library stock concentration: 123 uM
Among all 5,700 compounds or so, about 85 (1%) were called active. The sample as a whole holds a higher share of actives than the screen did.
Exercise: state measured nuclei count, normalised for each of the molecules provided.
Note: a bare number is incomplete; add the unit.

# molecule, parameter measured, result
measured = [
    ("OCC1OC(n2cnc3c2NC=NCC3O)CC1O (configuration not stated)", "nuclei count, normalised", "113%"),
    ("Nc1ccn(C2C=C(CO)C(O)C2O)c(=O)n1 (configuration not stated)", "nuclei count, normalised", "67.3%"),
    ("N#CSc1cc(SC#N)c(N)nc1N", "nuclei count, normalised", "113%"),
    ("NC(=O)c1ncn(C2OC(CO)C(O)C2O)c1O (configuration not stated)", "nuclei count, normalised", "107%"),
    ("CCOC(=O)c1sc(NC(=O)c2ccco2)c(SC#N)c1C", "nuclei count, normalised", "106%"),
]

Record nuclei count, normalised per entry; entries follow.
1. CC(=O)OC1C(=O)[C@]2(C)C(O)CC3OC[C@@]3(OC(C)=O)C2C(OC(=O)c2ccccc2)[C@]2(O)CC(OC(=O)C(O)C(NC(=O)c3ccccc3)c3ccccc3)C(C)=C1C2(C)C (some centres not stated)
2. COC(=O)C#Cc1ccc([N+](=O)[O-])cc1

1. 29.2%
2. 106%

---

Exercise: state measured p53-positive nuclei, normalised for each of the compounds provided.
target or test system: Cellular tumor antigen p53 (Homo sapiens) (UniProt P04637)
Sequence (P04637 whole entry, looked up): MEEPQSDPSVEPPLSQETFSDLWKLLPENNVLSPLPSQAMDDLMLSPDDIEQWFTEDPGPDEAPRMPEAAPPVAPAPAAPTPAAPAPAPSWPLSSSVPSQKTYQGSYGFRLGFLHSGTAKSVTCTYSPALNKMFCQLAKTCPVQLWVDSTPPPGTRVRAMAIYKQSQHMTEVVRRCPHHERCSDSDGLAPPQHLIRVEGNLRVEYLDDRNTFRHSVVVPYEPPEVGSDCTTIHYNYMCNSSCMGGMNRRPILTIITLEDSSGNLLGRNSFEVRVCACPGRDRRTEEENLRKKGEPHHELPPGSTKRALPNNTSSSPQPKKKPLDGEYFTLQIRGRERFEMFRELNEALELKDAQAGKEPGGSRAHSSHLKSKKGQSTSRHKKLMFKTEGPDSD
protocol: nuclear p53 accumulation, HPV+ cells – imaging, p53-positive nuclei imaging, 24 h, 48 h (AID 1508601)
assay context: 24/48 h, measured here: p53 positive nuclei at 24 h, Library stock concentration: 2 mM, stronger effect = higher value
In all, about 5,700 compounds went through this assay and about 85 (1%) were called active. Only a selection was taken, and actives are over-represented in it overall.
One number for each entry, in %.

Worked set:
# compound, quantitative readout
measured = [
    ("CCN1CCN(Cc2ccc(Nc3ncc4c(n3)N(C)c3ccccc3C(=O)N4C)cc2C(F)(F)F)CC1", -0.148),
    ("CCCCc1ccc(N=CNO)c(C)c1", 0.0465),
    ("CC(C)CC(NC(=O)C(O)C(N)Cc1ccccc1)C(=O)O (stereo unspecified)", -0.122),
    ("COc1ccc(-c2nc(N3CCOCC3)c3sc(CN(C)c4ncc(C(=O)NO)cn4)cc3n2)cn1", 81.2),
    ("COc1cc(C(=O)NS(=O)(=O)c2ccccc2C)ccc1Cc1cn(C)c2ccc(NC(=O)OC3CCCC3)cc12", 0.0356),
]

Next:
Recorded p53-positive nuclei, normalised for CS(=O)(=O)N1CCN(Cc2cc3nc(-c4cccc5[nH]ncc45)nc(N4CCOCC4)c3s2)CC1 , please?
-0.0447
